biological target: T1, human CTLA-4 (human, UniProt P16410 36-223); assay: flow cytometry MFI relative to WT CD80 IgV-Fc, CHO/huCTLA-4 cells, 33.3 nM
T1 construct: whole, on cells; CHO cells stably expressing huCTLA4; also called huCTLA4
T1 sequence (P16410 36-223): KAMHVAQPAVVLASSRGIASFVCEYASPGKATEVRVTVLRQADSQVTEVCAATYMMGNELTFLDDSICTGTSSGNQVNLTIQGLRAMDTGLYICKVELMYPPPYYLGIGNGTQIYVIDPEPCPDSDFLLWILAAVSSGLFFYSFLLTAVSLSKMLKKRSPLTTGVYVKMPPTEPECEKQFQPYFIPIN
Listed binders paired with reported Fold change to WT CD80

{"binder": "variant CD80 IgV-Fc (inert) H18I/A26P/E35D/M47V/V68M/A71G (Fc fusion, not shown: inert human IgG1 Fc) VIHVTKEVKEVATLSCGINVSVEELPQTRIYWQKDKKMVLTMMSGDVNIWPEYKNRTIFDITNNLSIMILGLRPSDEGTYECVVLKYEKDAFKREHLAEVTLSVKAD", "Fold change to WT CD80": "15.8 fold"}
{"binder": "variant CD80 IgV-Fc (inert) H18V/A26D/E35D/M47V/V68M/A71G/D90G (Fc fusion, not shown: inert human IgG1 Fc) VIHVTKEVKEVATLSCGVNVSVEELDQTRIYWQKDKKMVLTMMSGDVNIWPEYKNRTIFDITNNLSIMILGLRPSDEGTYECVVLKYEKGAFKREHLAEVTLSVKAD", "Fold change to WT CD80": "16 fold"}
{"binder": "variant CD80 IgV-Fc (inert) H18L/E35D/M47V/V68M/A71G/D90G (Fc fusion, not shown: inert human IgG1 Fc) VIHVTKEVKEVATLSCGLNVSVEELAQTRIYWQKDKKMVLTMMSGDVNIWPEYKNRTIFDITNNLSIMILGLRPSDEGTYECVVLKYEKGAFKREHLAEVTLSVKAD", "Fold change to WT CD80": "14.7 fold"}
{"binder": "variant CD80 IgV-Fc (inert) H18T/A26N/E35D/M47L/V68M/A71G (Fc fusion, not shown: inert human IgG1 Fc) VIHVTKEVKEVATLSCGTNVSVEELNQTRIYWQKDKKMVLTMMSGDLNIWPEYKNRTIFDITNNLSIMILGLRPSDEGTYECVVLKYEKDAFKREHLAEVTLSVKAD", "Fold change to WT CD80": "15.1 fold"}
